Test system: Fusarium oxysporum
experiment notes: Antifungal activity against Fusarium oxysporum f. sp. lupini at 20 ug/ml after 192 hrs relative to control
Type: functional
protocol conditions: read-out: GI
Decide using inhibition of growth at 20 µg/mL: a value greater than or equal to 2% is MET, a smaller one is NOT MET.

>  <molecule>
C=CCN/C=C1\C(=O)C(O)=C(C(C)C)c2cc(C)c(-c3c(C)cc4c(c3O)/C(=C/NCC=C)C(=O)C(O)=C4C(C)C)c(O)c21

>  <class>
MET

$$$$
>  <molecule>
COCCOC(C/N=C/c1c(O)c(O)c(C(C)C)c2cc(C)c(-c3c(C)cc4c(c3O)C(/C=N/CC(OCCOC)OCCOC)C(=O)C(O)=C4C(C)C)c(O)c12)OCCOC (configuration not stated)

>  <class>
NOT MET

$$$$
>  <molecule>
Cc1cc2c(c(O)c1-c1c(C)cc3c(c1O)/C(=C/NCCCN1CCOCC1)C(=O)C(O)=C3C(C)C)/C(=C/NCCCN1CCOCC1)C(=O)C(O)=C2C(C)C

>  <class>
NOT MET

$$$$
>  <molecule>
COCCOCCOCCN/C=C1\C(=O)C(O)=C(C(C)C)c2cc(C)c(-c3c(C)cc4c(c3O)/C(=C/NCCOCCOCCOC)C(=O)C(O)=C4C(C)C)c(O)c21

>  <class>
MET

$$$$
>  <molecule>
Cc1cc2c(c(O)c1-c1c(C)cc3c(c1O)/C(=C/NCCOCCO)C(=O)C(O)=C3C(C)C)/C(=C/NCCOCCO)C(=O)C(O)=C2C(C)C

>  <class>
MET

$$$$
>  <molecule>
Cc1cc2c(C(C)C)c(O)c(O)c(C=O)c2c(O)c1-c1c(C)cc2c(C(C)C)c(O)c(O)c(C=O)c2c1O

>  <class>
MET

$$$$
>  <molecule>
Cc1cc2c(c(O)c1-c1c(C)cc3c(C(C)C)c(O)c(O)c(/C=N/N4CCN(CCO)CC4)c3c1O)C(/C=N/N1CCN(CCO)CC1)C(=O)C(O)=C2C(C)C (configuration not stated)

>  <class>
NOT MET

$$$$
